Taken from patent US20120316169A1.

# TARGET ENTITY: BKB1 receptors (Homo sapiens, UniProt P46663)
# Construct: Human (IMR-90) lung fibroblast cells expressing native B1 receptors; endogenous in cells
# Sequence (P46663 whole entry): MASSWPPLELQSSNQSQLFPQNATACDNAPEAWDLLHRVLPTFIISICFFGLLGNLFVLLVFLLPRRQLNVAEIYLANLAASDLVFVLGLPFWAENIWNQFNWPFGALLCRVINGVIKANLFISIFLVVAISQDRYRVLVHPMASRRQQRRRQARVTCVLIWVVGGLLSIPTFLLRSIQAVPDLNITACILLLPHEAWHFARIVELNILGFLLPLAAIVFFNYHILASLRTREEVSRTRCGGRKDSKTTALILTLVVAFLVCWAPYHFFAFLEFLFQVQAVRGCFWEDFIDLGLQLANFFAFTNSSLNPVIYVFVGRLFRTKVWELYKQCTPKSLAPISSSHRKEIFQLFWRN
# PROTOCOL DETAILS: Calcium mobilization assay (FLIPR), B1 receptors in IMR-90 cells
# EXPERIMENTAL SETUP: Human IMR-90 lung fibroblast cells, up-regulated BKB1 receptors, agonist desArg10-kallidin (DAKD) 2 to 8 nM, calcium-dependent fluorescence
Some compounds, each annotated with its measured IC50.

{"COMPOUND": "CC(C(=O)Nc1ccc(Cc2ccncc2)cc1)c1ccc(OS(=O)(=O)C(F)(F)F)cc1 (stereo not drawn)", "RESULT UNITS": "µM", "IC50": 12.6}
{"COMPOUND": "CC(C(=O)Nc1ccncc1)c1cccc(Nc2ccc(F)cc2)c1 (stereo not drawn)", "RESULT UNITS": "µM", "IC50": 1}
{"COMPOUND": "CC(C(=O)NC1CCCCC1)c1cccc(C(=O)c2ccccc2)c1 (stereo not drawn)", "RESULT UNITS": "µM", "IC50": 8.51}
{"COMPOUND": "CC(C(=O)Nn1cnnc1)c1ccc(NS(=O)(=O)c2ccc(Cl)cc2)cc1 (stereo not drawn)", "RESULT UNITS": "µM", "IC50": 0.891}
{"COMPOUND": "CC(C(=O)Nc1ccncc1)c1ccc(Nc2ccccc2-n2cccc2)cc1 (stereo not drawn)", "RESULT UNITS": "µM", "IC50": 5.75}
{"COMPOUND": "CC(C(=O)NCCN1CCOCC1)c1ccc(Oc2cccc3ccccc23)cc1 (stereo not drawn)", "RESULT UNITS": "µM", "IC50": 4.07}
{"COMPOUND": "COc1cc(Nc2cccc(C(C)C(=O)NCC(C)(C)N)c2)cc(C(F)(F)F)c1 (stereo not drawn)", "RESULT UNITS": "µM", "IC50": 5.89}
{"COMPOUND": "COc1cc(Nc2cccc(C(C)C(=O)NC3CCCCC3N)c2)cc(C(F)(F)F)c1 (stereo not drawn)", "RESULT UNITS": "µM", "IC50": 6.92}
{"COMPOUND": "CC(C(=O)NCC(C)(C)N)c1cccc(Oc2cccc(OC(F)(F)F)c2)c1 (stereo not drawn)", "RESULT UNITS": "µM", "IC50": 2.09}
{"COMPOUND": "CC(C(=O)Nc1ccncc1)c1ccc(Nc2ccc(F)cc2)cc1 (stereo not drawn)", "RESULT UNITS": "µM", "IC50": 4.47}
{"COMPOUND": "CC(C(=O)NCCC1CCN(c2ccncc2)CC1)c1ccc(Nc2ccccc2-n2cccc2)cc1 (stereo not drawn)", "RESULT UNITS": "µM", "IC50": 0.708}
{"COMPOUND": "CCCC/C=C/c1cccc(C(C)C(=O)NCCNC(C)C)c1 (stereo not drawn)", "RESULT UNITS": "µM", "IC50": 8.51}
{"COMPOUND": "CC(C)Cc1ccc(C(C)C(=O)NC(N)=O)cc1 (stereo not drawn)", "RESULT UNITS": "µM", "IC50": 20}
{"COMPOUND": "COC(=O)C(CNC(=O)OC(C)(C)C)NC(=O)C(C)c1ccc(Oc2cccc3ccccc23)cc1 (stereo not drawn)", "RESULT UNITS": "µM", "IC50": 10.5}
{"COMPOUND": "Cc1cc(NC(=O)C(C)c2cccc(C(=O)c3cccs3)c2)n(C)n1 (stereo not drawn)", "RESULT UNITS": "µM", "IC50": 7.41}
{"COMPOUND": "CC(C)Cc1ccc(C(C)C(=O)Nc2cc[n+](C)cn2)cc1 (stereo not drawn)", "RESULT UNITS": "µM", "IC50": 12.6}
{"COMPOUND": "Cc1cc(NC(=O)C(C)c2cccc(Oc3cccc(F)c3)c2)n(C)n1 (stereo not drawn)", "RESULT UNITS": "µM", "IC50": 11.2}
{"COMPOUND": "CC(C(=O)NCC(=O)NC(C)(C)C)c1ccc(Nc2nc(C(F)(F)F)co2)cc1 (stereo not drawn)", "RESULT UNITS": "µM", "IC50": 7.76}
